Entry source: ChEMBL document CHEMBL5537177

# Test system: Plasmodium falciparum
# test-summary: Resistance index, ratio of EC50 for multidrug-resistant Plasmodium falciparum Dd2 at ring stage infected in A+ erythrocytes to EC50 for drug-sensitive Plasmodium falciparum 3D7 at ring stage infected in A+ erythrocytes
# Format: organism-based
# assay-conditions: human
Task for the reader: assign each of the following compounds its reported Ratio EC50.
No unit in the answer, only the number.

Prompt: Request the reported Ratio EC50 associated with CCN1CCN(Cc2ccc(NC(=O)c3cc(F)cc(NC(=O)c4cncc(-c5cccs5)c4)c3)cc2C(F)(F)F)CC1
Response: 1.2

Prompt: Request the reported Ratio EC50 associated with CCN1CCN(Cc2ccc(NC(=O)c3cc(Cl)cc(NC(=O)c4cncc(-c5cccs5)c4)c3)cc2)CC1
Response: 1.1

Prompt: Request the reported Ratio EC50 associated with CCN1CCN(Cc2ccc(NC(=O)c3cc(Cl)cc(Nc4cncc(-c5cccs5)c4)c3)cc2C(F)(F)F)CC1
Response: 1.2

Prompt: Request the reported Ratio EC50 associated with CCN1CCN(Cc2ccc(NC(=O)c3cc(Cl)cc(NC(=O)c4cncnc4)c3)cc2C(F)(F)F)CC1
Response: 1.3

Prompt: Request the reported Ratio EC50 associated with CCN1CCN(Cc2ccc(NC(=O)c3ccnc(NC(=O)c4cncc(-c5cccs5)c4)c3)cc2C(F)(F)F)CC1
Response: 1.6

Prompt: Request the reported Ratio EC50 associated with CCN1CCN(Cc2ccc(NC(=O)c3cc(C)cc(NC(=O)c4cncc(-c5cccs5)c4)c3)cc2C(F)(F)F)CC1
Response: 1.6

Prompt: Request the reported Ratio EC50 associated with CCN1CCN(Cc2ccc(NC(=O)c3cc(Cl)cc(NC(=O)c4cncc(-c5cccs5)c4)c3)cc2C(F)(F)F)CC1
Response: 1.4

Prompt: Request the reported Ratio EC50 associated with CCN1CCN(Cc2ccc(NC(=O)c3cncc(NC(=O)c4cncc(-c5cccs5)c4)c3)cc2C(F)(F)F)CC1
Response: 1.1

Prompt: Request the reported Ratio EC50 associated with CCN1CCN(Cc2ccc(NC(=O)c3cc(Br)cc(NC(=O)c4cncc(-c5cccs5)c4)c3)cc2C(F)(F)F)CC1
Response: 1.6
